We begin with a simple list: items and their reported % inhibition Apol 90'.
Target: P. falciparum apicoplast DNA polymerase (Pf-apPOL) (Plasmodium falciparum, UniProt Q8ILY1)
Sequence (Q8ILY1 entry or part of it): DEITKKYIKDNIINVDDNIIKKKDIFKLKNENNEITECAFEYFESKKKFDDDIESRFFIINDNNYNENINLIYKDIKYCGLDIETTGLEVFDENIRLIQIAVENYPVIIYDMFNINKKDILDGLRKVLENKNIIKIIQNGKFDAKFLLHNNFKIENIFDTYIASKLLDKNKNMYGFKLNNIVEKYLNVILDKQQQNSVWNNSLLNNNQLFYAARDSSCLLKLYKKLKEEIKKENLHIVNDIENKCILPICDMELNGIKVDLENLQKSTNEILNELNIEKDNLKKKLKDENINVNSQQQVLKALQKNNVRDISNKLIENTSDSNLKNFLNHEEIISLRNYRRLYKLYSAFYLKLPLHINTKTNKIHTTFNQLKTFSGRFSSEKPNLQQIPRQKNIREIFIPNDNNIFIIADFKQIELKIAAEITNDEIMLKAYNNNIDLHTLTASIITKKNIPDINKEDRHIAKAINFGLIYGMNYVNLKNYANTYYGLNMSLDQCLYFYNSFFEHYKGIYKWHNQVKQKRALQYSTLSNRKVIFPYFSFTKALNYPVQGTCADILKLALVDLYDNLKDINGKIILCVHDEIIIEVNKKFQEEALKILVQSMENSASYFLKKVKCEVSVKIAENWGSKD
Experiment: Fluorescence-based high-throughput DNA polymerase assay (molecular beacon), primary screen and dose-response
Type: biochemical
Details: DRC-1; 90'; concentration 10
readout_kind: % inhibition Apol 90' (%)

compound	readout_kind	reading
CC(C)(C)OC(=O)COc1ccc2cc(-c3ccccc3)c(=O)oc2c1	% inhibition Apol 90'	16.0875
Cc1cccc2c(C(=O)NC(C)C)cc(N(C)C)nc12	% inhibition Apol 90'	20.6995
O=C(Cn1ccc2c(=O)[nH]ccc21)Nc1cccc(Cl)c1 [Molecule 23, O=C(Cn1ccc2c1cc[nH]c2=O)Nc1cccc(c1)Cl]	% inhibition Apol 90'	48.8063
O=C(CSc1nnc(-c2ccco2)[nH]1)c1ccc(Cl)cc1	% inhibition Apol 90'	48.3315
Cc1ccc(NC(=O)C2CCN(C(=O)c3cc4ccsc4[nH]3)CC2)c(Br)c1	% inhibition Apol 90'	48
O=C(Cc1cc(=O)[nH]c(SCc2ccccc2)n1)Nc1ccc2c(c1)OCO2	% inhibition Apol 90'	17.8668
Cc1cc(C)c2c(O)nc(SCC(=O)c3ccc(O)c(O)c3)nc2n1	% inhibition Apol 90'	76.3822
COc1cc(NC(=O)c2ccccc2)c(OC)cc1NC(=O)Cc1cccs1	% inhibition Apol 90'	29.583

###

Molecular target: UniProt:Q8ILY1
Test: Fluorescence-based high-throughput DNA polymerase assay (molecular beacon), primary screen and dose-response
Type: biochemical
Conditions: DRC-1; 90'; concentration 5

molecule	% inhibition Apol 90' / %
O=C(Nc1nnc(-c2ccno2)o1)c1ccc2ncsc2c1 [Molecule 62, O=C(c1ccc2c(c1)scn2)Nc1nnc(o1)c1ccno1]	1.406
O=C(O)C(=O)Nc1nc(-c2ccc3c(c2)OCCO3)cs1 [Molecule 82, OC(=O)C(=O)Nc1scc(n1)c1ccc2c(c1)OCCO2]	11.5991
CS(=O)(=O)c1cccc(C(=O)Nc2nnc(-c3ccno3)o2)c1 [KU0171319]	1.476
COc1cc(Cl)c(C)cc1NC(=O)Cn1ccc2c(=O)[nH]ccc21 [Molecule 33]	4.488
O=C(Cn1ccc2c(=O)[nH]ccc21)Nc1cc(F)ccc1F [Molecule 42, O=C(Cn1ccc2c1cc[nH]c2=O)Nc1cc(F)ccc1F]	4.148

###

We begin with a simple list: items and their reported % inhibition T4 70' 20.
Target: bacteriophage T4 DNA polymerase (Enterobacteria phage T4, UniProt P04415)
Construct: made in house
Sequence (P04415 whole entry): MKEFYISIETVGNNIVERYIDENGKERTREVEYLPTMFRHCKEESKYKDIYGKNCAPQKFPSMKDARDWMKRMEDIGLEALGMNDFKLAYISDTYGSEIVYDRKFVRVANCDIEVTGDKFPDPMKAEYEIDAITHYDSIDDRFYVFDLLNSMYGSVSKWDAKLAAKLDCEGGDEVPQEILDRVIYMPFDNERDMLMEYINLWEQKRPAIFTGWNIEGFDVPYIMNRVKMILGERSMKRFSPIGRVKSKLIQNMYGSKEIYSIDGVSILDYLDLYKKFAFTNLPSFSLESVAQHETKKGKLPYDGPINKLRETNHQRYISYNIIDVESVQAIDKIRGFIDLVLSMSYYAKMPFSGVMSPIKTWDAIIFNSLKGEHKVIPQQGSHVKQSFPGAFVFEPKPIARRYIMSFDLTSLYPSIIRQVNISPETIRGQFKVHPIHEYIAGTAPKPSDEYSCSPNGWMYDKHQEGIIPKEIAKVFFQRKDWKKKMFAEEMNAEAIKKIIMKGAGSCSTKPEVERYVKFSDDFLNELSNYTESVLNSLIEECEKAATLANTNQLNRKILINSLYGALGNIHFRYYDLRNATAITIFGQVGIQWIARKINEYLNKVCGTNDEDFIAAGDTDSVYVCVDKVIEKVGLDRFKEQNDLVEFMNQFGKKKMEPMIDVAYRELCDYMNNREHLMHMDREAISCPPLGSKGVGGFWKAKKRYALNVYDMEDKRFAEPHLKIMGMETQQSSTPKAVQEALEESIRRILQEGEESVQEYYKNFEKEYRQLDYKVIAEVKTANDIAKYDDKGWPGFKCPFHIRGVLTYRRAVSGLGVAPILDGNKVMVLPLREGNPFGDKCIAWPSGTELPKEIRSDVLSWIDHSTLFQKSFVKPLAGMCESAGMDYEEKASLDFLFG
Assay: Counter-screen against bacteriophage T4 DNA polymerase
Format: biochemical
Settings: DRC-1; read at 70'; concentration 20

compound	% inhibition T4 70' 20
Cc1nc(C)c2c(n1)N(CC1CCCCC1)C(=O)CC2	-8.03%
N#Cc1c(O)nc(N2CCCCC2)nc1-c1ccc2c(c1)OCO2	-6.699%
CC(=O)Nc1cc(C(=O)c2cccs2)nn(-c2ccc(Cl)cc2)c1=O	12.7493%
C#CC(C=CC)OC(=O)c1ccccc1C(=O)O (stereo not shown)	11.2187%

###

Target: bacteriophage T4 DNA polymerase (Enterobacteria phage T4, UniProt P04415)
Construct: made in house
Experiment: Counter-screen against bacteriophage T4 DNA polymerase
Assay type: biochemical
Settings: DRC-2; 90'; concentration 20

compound	target_of_assay	% inhibition T4 90' / %
O=C(O)CCS(=O)(=O)c1ccc(-c2ccc(S(=O)(=O)CCC(=O)O)cc2)cc1	bacteriophage T4 DNA polymerase (Enterobacteria phage T4, UniProt P04415)	-25
O=C(CSc1nnc(-c2ccco2)[nH]1)c1ccc(Cl)cc1	bacteriophage T4 DNA polymerase (Enterobacteria phage T4, UniProt P04415)	3
Cc1ccc(-n2nnc(C(=O)O)c2-c2ccccn2)c(F)c1	bacteriophage T4 DNA polymerase (Enterobacteria phage T4, UniProt P04415)	22
Cc1ccc(C)n1-c1ccc(C(=O)NNC(=O)c2ccc3nccnc3c2)cc1	bacteriophage T4 DNA polymerase (Enterobacteria phage T4, UniProt P04415)	29
O=C(NNC(=O)c1ccc(Cl)cc1)C(=O)NNC(=O)c1ccc(Cl)cc1	bacteriophage T4 DNA polymerase (Enterobacteria phage T4, UniProt P04415)	-22
Cc1ccc2c(C(=O)NCCc3cccnc3)cc(NC(=O)C(C)C)cc2n1	bacteriophage T4 DNA polymerase (Enterobacteria phage T4, UniProt P04415)	30
CC(C)(C)OC(=O)COc1ccc2cc(-c3ccccc3)c(=O)oc2c1	bacteriophage T4 DNA polymerase (Enterobacteria phage T4, UniProt P04415)	6
CC(NC(=O)Cc1cc(=O)[nH]c(SCc2cccc(Cl)c2)n1)c1ccccc1 (centres unmarked)	bacteriophage T4 DNA polymerase (Enterobacteria phage T4, UniProt P04415)	18

###

Biological target: P. falciparum apicoplast DNA polymerase (Pf-apPOL) (Plasmodium falciparum, UniProt Q8ILY1)
Test: Fluorescence-based high-throughput DNA polymerase assay (molecular beacon), primary screen and dose-response
Format: biochemical
Conditions: DRC-1; 10'; conc 10
readout_kind: % inhibition Apo pol 10' (%)

compound	readout_kind	endpoint_unit	reading
Cc1ccc(CNC(=O)c2cnn3c(O)cc(CSc4ccc(Cl)cc4)nc23)cc1	% inhibition Apo pol 10'	%	59.9515
CC(C)CCNC(=O)c1cnn2c(O)cc(CSc3ccc(Cl)cc3)nc12	% inhibition Apo pol 10'	%	55.0331
O=C(O)c1ccc(COc2cc([N+](=O)[O-])cc3cccnc23)cc1	% inhibition Apo pol 10'	%	42.2641
Cc1ccccc1NC(=O)Cn1ccc2c(=O)[nH]ccc21 [Molecule 50, O=C(Cn1ccc2c1cc[nH]c2=O)Nc1ccc(cc1)C]	% inhibition Apo pol 10'	%	50.7772
Cc1cc(C)c2c(c1)C1C=CCC1C(c1ccc(C(=O)O)cc1)N2 (stereo not drawn)	% inhibition Apo pol 10'	%	76.4739
COc1ccccc1C1CC(=O)Oc2cc3c(cc21)OCO3 (stereo not drawn)	% inhibition Apo pol 10'	%	61.1126
Cc1ccc(NC(=O)Cn2ccc3c(=O)[nH]ccc32)c(C)c1	% inhibition Apo pol 10'	%	33.277
CCOc1nc2cccc(C(=O)OC(C)OC(=O)OC3CCCCC3)c2n1Cc1ccc(-c2ccccc2-c2nnn[nH]2)cc1 (stereo not drawn)	% inhibition Apo pol 10'	%	73.0339
O=C1NN(c2ccc(Cl)c(Cl)c2)C(=O)/C1=C/c1ccc(-c2ccc3c(c2)C(=O)OC3)o1	% inhibition Apo pol 10'	%	88.9603
C=CCOc1c(Br)cc(Br)cc1/C=C1\SC(=N)NC1=O	% inhibition Apo pol 10'	%	11.4088
C=CC1=C(C)c2cc3[nH]c(cc4nc(cc5[nH]c(cc1n2)c(C)c5CCC(=O)O)C(CCC(=O)O)=C4C)c(C)c3C=C	% inhibition Apo pol 10'	%	94.5739
Cc1ccc(N2NC(=O)/C(=C\c3ccc(O)c([N+](=O)[O-])c3)C2=O)cc1Cl	% inhibition Apo pol 10'	%	57.6403
O=c1nc(/C=C/c2ccc(Br)cc2)oc2ccccc12	% inhibition Apo pol 10'	%	5.765
Cc1cccc(C2=N/C(=C\c3ccc([N+](=O)[O-])o3)C(=O)O2)c1	% inhibition Apo pol 10'	%	61.5267
N#CC(C#N)=C1SCN(c2cccc(Cl)c2)CS1	% inhibition Apo pol 10'	%	36.478
Cc1cccc(NC(=O)Cn2ccc3c(=O)[nH]ccc32)c1C [Molecule 11, O=C(Cn1ccc2c1cc[nH]c2=O)Nc1cccc(c1C)C]	% inhibition Apo pol 10'	%	64.035
O=C1Nc2ccc(I)cc2C1=Cc1cc(Br)c(O)c(Br)c1	% inhibition Apo pol 10'	%	55.8319
COC(=O)c1sc(-c2ccc(C(C)(C)C)cc2)cc1NC(=O)CCC(=O)O	% inhibition Apo pol 10'	%	55.209

###

We begin with a simple list: items and their reported % inhibition T4 40' 2.5.
Molecular target: bacteriophage T4 DNA polymerase (Enterobacteria phage T4, UniProt P04415)
Construct: made in house
Experiment: Counter-screen against bacteriophage T4 DNA polymerase
Type: biochemical
Settings: DRC-2; read at 40'; concentration 2.5

compound	% inhibition T4 40' 2.5, %
COc1ccccc1CC(=O)N1CCc2c(nc3cc(-c4ccccc4Cl)[nH]n3c2=O)C1	-2.7
CC(C)CC(C(=O)O)N1C(=O)C2C3C=CC(C2C1=O)C1C(=O)N(C(CC(C)C)C(=O)O)C(=O)C31 (stereo not drawn)	4.54
COc1ccc(C2CC(c3ccc(Cl)cc3Cl)Nc3nc(N)nn32)cc1OC (stereo not drawn)	2.64
O=C(c1ccccc1)N1CCc2c(nc3cc(-c4ccccc4)[nH]n3c2=O)C1	1.68
Cn1nc(-c2nnc(-c3ccccc3F)o2)c2c1CCN(C(=O)c1ccccc1Cl)C2	-0.945
O=C(CCc1csc(NC(=O)Nc2ccccc2)n1)Nc1nc2ccccc2s1	-8
O=C1CSC2=NC3=C(CCc4ccccc43)C(c3cccs3)N12 (stereo not drawn)	31
Cc1cc2[nH]c(C(=O)Nc3ccc(F)cc3)c(CN3CCOCC3)c2s1	3.64
Cc1ccc(N2CCC(NC(=O)Cc3cccs3)C2=O)cc1C (stereo not drawn)	13
CCCc1ccc(Oc2coc3cc(OC)ccc3c2=O)cc1	9
Nc1cc(Oc2ccc(O)c(N)c2)ccc1O	-8
Cn1nc(-c2nc(-c3ccccc3)no2)c2c1CCN(C(=O)Cc1cccs1)C2	2.18
